Assay: Blood concentration after forced oral administration into rat stomach
Assay type: in vivo
Conditions: SD male rat, 30 mg/kg forced into the stomach under starvation, serum, unchanged compound by HPLC, read-out: AUC (extrapolation)
Method: By using a SD male rat, a compound having the compound number of 121, 127 or 363 was forcedly administered at a dose of 30 mg/kg into the stomach under starvation, and blood samples were taken out at 30 min, 1 hr, 2 hr, 4 hr and 8 hr after the administration. […]
MEASURED QUANTITY: AUC (µg·h/mL)
Number only, in µg·h/mL; omit the unit.

Ask | Quick check: AUC of `N#Cc1ccc2c(c1)nc(SCCCC(=O)O)n2Cc1cccc2ccccc12` ?
Reply | 182

Ask | Could you tell me which AUC is on file for `O=C(O)CCCSc1nc2ccccc2n1Cc1cccc2ccccc12` ?
Reply | 226

Ask | // AUC lookup, key: `COc1ccc2c(c1)nc(SCCCC(=O)O)n2Cc1cccc2ccccc12`
Reply | 181

* * *

Target: recombinant human mast cell chymase (Homo sapiens, UniProt P23946)
Sequence (P23946 22-247): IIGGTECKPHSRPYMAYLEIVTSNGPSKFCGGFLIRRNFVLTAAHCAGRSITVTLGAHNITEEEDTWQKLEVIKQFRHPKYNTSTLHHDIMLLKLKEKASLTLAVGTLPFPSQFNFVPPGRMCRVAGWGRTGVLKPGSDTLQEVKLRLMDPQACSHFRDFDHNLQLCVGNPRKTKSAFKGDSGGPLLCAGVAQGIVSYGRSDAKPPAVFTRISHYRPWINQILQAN
Assay: Inhibition of enzyme activity of recombinant human mast cell chymase
Details: active-type human mast cell chymase, substrate succinyl-alanyl-histidyl-prolyl-phenylalanylparanitroanilide 0.5 mM, room temperature 5 min, absorption at 405
MEASURED QUANTITY: IC50

Ask | IC50 lookup needed for `N#Cc1ccc2c(c1)nc(SCCCC(=O)O)n2Cc1cccc2ccccc12` , thanks.
Reply | 10 to 100 nM

Ask | Recorded IC50 for `Cc1cccc2cccc(Cn3c(SCCCC(=O)O)nc4ccccc43)c12` , please?
Reply | 1 to 10 nM

Ask | Endpoint output: IC50 of `Cc1cc2nc(SCCCC(=O)O)n(Cc3cccc4ccccc34)c2cc1C` . Value?
Reply | 1 to 10 nM

Ask | Can you look up the measured IC50 of `Cc1cc2nc(S(=O)(=O)CCCC(=O)O)n(Cc3cccc4ccccc34)c2cc1C` for me?
Reply | 10 to 100 nM

Ask | Entry `O=C(O)CCCCSc1nc2ccccc2n1Cc1cccc2ccccc12` has what IC50?
Reply | 10 to 100 nM

Ask | Need IC50 of `O=C(O)CCCSc1nc2cc(F)c(F)cc2n1Cc1cccc2ccccc12` , thanks.
Reply | 10 to 100 nM

Ask | Return reported IC50; argument: `COc1ccc2c(c1)nc(SCCCC(=O)O)n2Cc1cc(C)ccc1C`
Reply | 10 to 100 nM

Ask | Quick check: IC50 of `Cc1cc2nc(SCCCC(=O)O)n(Cc3cccc4cccc(C)c34)c2cc1C` ?
Reply | 1 to 10 nM

* * *

Please provide measured Cmax for the entries that follow.
Assay: Blood concentration after forced oral administration into rat stomach
Assay type: in vivo
Details: SD male rat, 30 mg/kg forced into the stomach under starvation, serum, unchanged compound by HPLC
# unit: µg/mL | format: bare number

Ask | Name the recorded Cmax for `O=C(O)CCCSc1nc2ccccc2n1Cc1cccc2ccccc12` .
Reply | 122

Ask | I am curious: what Cmax value has been reported for `N#Cc1ccc2c(c1)nc(SCCCC(=O)O)n2Cc1cccc2ccccc12` ?
Reply | 77

Ask | Look at this compound and give its reported Cmax. `COc1ccc2c(c1)nc(SCCCC(=O)O)n2Cc1cccc2ccccc12`
Reply | 76

* * *

Target: recombinant human mast cell chymase (Homo sapiens)
Assay: Inhibition of enzyme activity of recombinant human mast cell chymase
Settings: active-type human mast cell chymase, substrate succinyl-alanyl-histidyl-prolyl-phenylalanylparanitroanilide 0.5 mM, room temperature 5 min, absorption at 405
MEASURED QUANTITY: IC50

Ask | Entry under review: Cc1ccc(C)c(Cn2c(SCCCC(=O)O)nc3cc(C#N)ccc32)c1 [Compound No. 337] . Reported IC50?
Reply | 10 to 100 nM

Ask | # query: IC50 of entry O=C(O)CCCSc1nc2cc(C(F)(F)F)ccc2n1Cc1cccc2ccccc12 [Compound No. 126]
Reply | 10 to 100 nM

Ask | Quick check: IC50 of COc1ccc2c(c1)nc(SCCCC(=O)O)n2Cc1cccc2ccccc12 [Compound No. 127] ?
Reply | 1 to 10 nM

Ask | IC50 lookup needed for O=C(O)CCSc1nc2ccccc2n1Cc1cccc2ccccc12 [Compound No. 496] , thanks.
Reply | 10 to 100 nM

Ask | Give its IC50 value. Item: O=C(O)CCCSc1nc2ccccc2n1Cc1cccc2ccccc12 [Compound No. 121]
Reply | 1 to 10 nM

Ask | Need IC50, item CCOc1ccc2c(c1)nc(SCCCC(=O)O)n2Cc1cccc2ccccc12 [Compound No. 128]
Reply | 10 to 100 nM

Ask | Would you kindly share the measured IC50 for CC(C)(CC(=O)O)C(=O)CSc1nc2ccccc2n1Cc1cccc2ccccc12 [Compound No. 494] ?
Reply | 10 to 100 nM
